Quick list: emission maximum per entry.
- assay.name: solvent given as SMILES
- condition.label: in CCCCCCO

| entry.smiles | emission maximum, nm |
| --- | --- |
| Oc1ccc(/N=C/c2ccccc2Oc2ccccc2)cc1 | 413 |
| Nc1ccc(C#Cc2ccc3ccc4ccc(C#Cc5ccc(N)cc5)c5ccc2c3c45)cc1 | 534 |
| Cc1ccc(Nc2ccc(Nc3ccc(C)cc3)c3c2C(=O)c2ccccc2C3=O)cc1 | 682 |
| COC(=O)c1ccc(-c2ccc(-c3nnc(-c4ccc(-c5nnc(-c6ccc(-c7ccc(C(=O)OC)cc7)s6)o5)cc4)o3)s2)cc1 | 389 |

----------
- assay.name: solvent given as SMILES
- condition.label: in ClC(Cl)Cl

| compound | emission maximum (nm) |
| --- | --- |
| C[Si]1(C)O[Si](C)(C)c2cc3cc4c(cc3cc21)C(=O)c1cc2cc3c(cc2cc1C4=O)[Si](C)(C)O[Si]3(C)C | 437 |
| c1ccc(-c2ccnc(-c3ccccc3)n2)cc1 | 311 |
| COc1ccc(-c2cc(-c3ccc(OC)cc3)c3c(N)nc(N4CCCC4)c(C#N)c3n2)cc1 | 500 |
| CCCCCCCCC1(CCCCCCCC)c2cc(C#CC#Cc3ccc(N(c4ccccc4)c4ccccc4)cc3)ccc2-c2ccc(C=O)cc21 | 500 |
| Clc1ccc(-c2nc(-c3ccccc3)c(N(c3ccccc3)c3ccccc3)s2)cc1 | 474 |
| O=S(=O)(c1cccc(N2c3ccccc3Sc3ccccc32)c1)c1cccc(N2c3ccccc3Sc3ccccc32)c1 | 579 |
| CCCCCCN1C(=O)c2cccc3cc(/N=C\c4ccc(N5CCOCC5)cc4)cc(c23)C1=O | 557 |
| Cc1cc(-c2ccc(-c3ccccc3)cc2)nc(-c2ccc(-n3c4ccccc4c4ccccc43)cc2)n1 | 416 |
| O=C1CC(c2ccc(F)cc2)c2c(c3ccccc3c3nc4ccccc4nc23)O1 (centres undefined) | 437 |
